Each item that follows carries a reported hAmylin-R funct. EC50 (pM).
Molecular target: T1, human amylin 3(a) receptor (human calcitonin receptor co-expressed with RAMP-3) (human, UniProt P30988 25-474; O60896 24-148, limits assumed)
T1 sequence (looked up) 1: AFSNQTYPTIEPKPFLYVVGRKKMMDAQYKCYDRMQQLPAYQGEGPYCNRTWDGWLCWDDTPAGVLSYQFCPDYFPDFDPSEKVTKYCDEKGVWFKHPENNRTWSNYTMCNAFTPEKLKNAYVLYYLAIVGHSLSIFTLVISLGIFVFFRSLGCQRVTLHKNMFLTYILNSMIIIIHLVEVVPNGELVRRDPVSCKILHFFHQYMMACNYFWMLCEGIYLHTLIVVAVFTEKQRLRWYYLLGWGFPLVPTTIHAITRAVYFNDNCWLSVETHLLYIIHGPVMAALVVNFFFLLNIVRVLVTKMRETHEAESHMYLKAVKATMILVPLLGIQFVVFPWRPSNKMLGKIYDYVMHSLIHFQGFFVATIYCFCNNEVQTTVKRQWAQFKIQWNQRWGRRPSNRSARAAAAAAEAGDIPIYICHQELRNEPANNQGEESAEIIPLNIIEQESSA
T1 sequence (looked up) 2: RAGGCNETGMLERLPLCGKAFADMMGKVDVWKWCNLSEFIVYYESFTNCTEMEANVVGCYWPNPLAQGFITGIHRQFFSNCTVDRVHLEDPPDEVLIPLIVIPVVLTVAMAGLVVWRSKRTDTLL
Experiment: cell-based or functional assay
Numbered stars: 1 amine (or outer) side, 2 acyl side, 3 side chain; on linkers, the order of the positions; unused ones are H or OH. Side chains are listed from the residue outwards. * marks the point of attachment. C20 diacid = O=C(O)CCCCCCCCCCCCCCCCCCC(=O)*; C18 diacid = O=C(O)CCCCCCCCCCCCCCCCC(=O)*; γGlu = O=C(O)[C@H](CCC(=O)[*:2])N[*:1]
Measure name: hAmylin-R funct. EC50 (pM)

- {C18 diacid-γGlu}-ASELSTAALGRLSAELHELATLPRTETGSGSP-NH2 [[N-terminal(C18 diacid-gGlu), des1, 30S, 31G]mimylin]: 16
- Ac-ASELSTAALGRLSAELHK([γGlu-C20 diacid])LATLPRTETGSGSP-NH2 [[N-terminal(acetyl), des1, 19K(C20 diacid-gGlu), 30S, 31G]mimylin]: 32
- {C20 diacid-γGlu}-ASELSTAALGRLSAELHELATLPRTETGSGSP-NH2 [[N-terminal(C20 diacid-gGlu), des1, 30S, 31G]mimylin]: 13
